assay: yeast display, Sf9 membrane polyspecificity reagent, FACS + sequencing; frameworks hold sequencing errors
Assay endpoint: polyreactivity (PSR sort gate)

The cases that follow already have their polyreactivity (PSR sort gate) on record.
Monomer sequence: QVQLVESCGRLVQAGGSLRISCAASGYTFSYYAMGWYRQAHGKERELVAAINYSGGRTYYADSVKGRFTISRDNAKNNVYLQMNSLKPEDTAVYYCSAYTRNGEYDYWGQGTQVTVSS
Val: high polyreactivity
//
Monomer sequence: QVQLVESGGGLVQAGGSLRLSCAASGRTLHSYAMGWYRQAPGKERELVAAISGGASTYADSVKGRFTISRDNAMITVYFQMNSLKPEDTAVYYCAADDDPVPTYEYDVWGQGTQVTVSS
Val: low polyreactivity
//
Monomer sequence: QVQLVESGGGLVQAGGSLRLSCAASGRTFGVYAMGWYRQAPGKERELVATITSVDRTNYADSVKGRFTISRDNAKNTVYLQMNSLKPEDTAVYYCAAVGRWPRYYYWGQGTQVTVSS
Val: high polyreactivity
//
Monomer sequence: QVQLVESGGGLVQAGGSLSLSCAASGLIFYYYAMGWYRQAPGKERELVAAISGSGGSTYYADSVKGRFTISRDNAKNTVYLQMNSLKPEDTAVYYCAAESQYTYGYGYWGQGTQVTVSS
Val: high polyreactivity
//
Monomer sequence: QVQLVESGGGLVLAGGSLPLSCAASGSIIWRNAMGWSRHAPVKERELVAAITWNGGSTYYADSVKGCFTSSRDNAKNTVYLQMNSLIPEDTAVYYSAARCEYPYDYWGQGSQVTVSS
Val: low polyreactivity

Next sequence, please.
Look at this sequence and give its reported polyreactivity (PSR sort gate). QVQLVESVGGLVQAGGSLRLSCAASGNTFSYNAMGWYRQAPGKERELVAAIRWSGGSTYYADSVKGRFTISRDNAKNTVYLQMNSLKPEDTAVYYCNARYASTNYGWFSYYWGQGTQVTVSS
high polyreactivity
